# tested.system: Coagulation factor X (Homo sapiens, UniProt P00742)
# Sequence (P00742 41-179 limits assumed): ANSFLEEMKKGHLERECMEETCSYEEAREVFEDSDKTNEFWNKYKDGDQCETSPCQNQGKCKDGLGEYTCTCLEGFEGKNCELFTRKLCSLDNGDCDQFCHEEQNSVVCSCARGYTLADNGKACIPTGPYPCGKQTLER
# Sequence (P00742 235-488 limits assumed): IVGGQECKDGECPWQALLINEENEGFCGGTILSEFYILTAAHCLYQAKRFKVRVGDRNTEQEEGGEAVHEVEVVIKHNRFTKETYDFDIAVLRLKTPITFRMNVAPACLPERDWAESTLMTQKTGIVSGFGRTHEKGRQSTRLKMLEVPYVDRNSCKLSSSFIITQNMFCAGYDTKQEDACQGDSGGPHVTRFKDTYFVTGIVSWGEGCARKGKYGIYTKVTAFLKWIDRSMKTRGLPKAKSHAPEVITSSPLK
# experiment.description: Inhibition of human recombinant factor 10a using H2N(EEdansyl)GKQLRVVNGG (KDabcyl)-NH2 as substrate by fluorometric analysis
recorded.endpoint: Ki (nM)

P: N=C(N)c1cccc(N2CC(NC(=O)Cc3ccccc3)CN(CC3CCN(Cc4ccccc4)CC3)C2=O)c1 (stereo unspecified)
Q: COC1CN(CC2CCN(Cc3ccccc3)CC2)C(=O)N(c2cccc(C(=N)N)c2)C1 (stereo unspecified)
Of P and Q , which carries the smaller reported Ki figure? Your answer should be the label attached to the chosen record.
P

----------
# tested.system: Coagulation factor X (Homo sapiens, UniProt P00742)
# experiment.description: Inhibition of human recombinant factor 10a using H2N(EEdansyl)GKQLRVVNGG (KDabcyl)-NH2 as substrate by fluorometric analysis
pKi: −log10 of the molar value.
recorded.endpoint: pKi

- molecule: "N=C(N)c1cccc(N2CC(O)CN(CC3CCN(Cc4ccccc4)CC3)C2=O)c1 (centres undefined)"
  pKi: 6.07
- molecule: "N=C(N)c1cccc(N2CC(NS(=O)(=O)Cc3ccccc3)CN(CC3CCN(Cc4ccccc4)CC3)C2=O)c1 (centres undefined)"
  pKi: 6.18
- molecule: "N=C(N)c1cccc(N2CC(CNC(=O)c3ccccc3)CN(CC3CCN(Cc4ccccc4)CC3)C2=O)c1 (centres undefined)"
  pKi: 6.12
- molecule: "N=C(N)c1cccc(N2CC(OCc3ccccc3)CN(CC3CCN(Cc4ccccc4)CC3)C2=O)c1 (centres undefined)"
  pKi: 6.04
